Target sequence: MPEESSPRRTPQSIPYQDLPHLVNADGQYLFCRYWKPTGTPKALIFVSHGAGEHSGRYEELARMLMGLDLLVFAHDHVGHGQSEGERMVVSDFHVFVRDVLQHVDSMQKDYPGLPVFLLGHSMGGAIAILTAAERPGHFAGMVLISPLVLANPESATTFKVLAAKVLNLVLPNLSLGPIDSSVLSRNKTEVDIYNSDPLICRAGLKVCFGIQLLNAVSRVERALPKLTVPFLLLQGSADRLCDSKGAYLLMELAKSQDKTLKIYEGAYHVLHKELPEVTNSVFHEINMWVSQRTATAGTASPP
pIC50: −log10 of the molar value.
measure: pIC50

- O=C(OC(C(F)(F)F)C(F)(F)F)N1CCC2(CCCN2Cc2cc3cc(Cl)c(Cl)cc3[nH]2)CC1: > 7.00
